- Subject Of Test: Gamma-aminobutyric acid receptor subunit alpha-2 (Homo sapiens, UniProt P47869)
- Sequence (P47869 whole entry): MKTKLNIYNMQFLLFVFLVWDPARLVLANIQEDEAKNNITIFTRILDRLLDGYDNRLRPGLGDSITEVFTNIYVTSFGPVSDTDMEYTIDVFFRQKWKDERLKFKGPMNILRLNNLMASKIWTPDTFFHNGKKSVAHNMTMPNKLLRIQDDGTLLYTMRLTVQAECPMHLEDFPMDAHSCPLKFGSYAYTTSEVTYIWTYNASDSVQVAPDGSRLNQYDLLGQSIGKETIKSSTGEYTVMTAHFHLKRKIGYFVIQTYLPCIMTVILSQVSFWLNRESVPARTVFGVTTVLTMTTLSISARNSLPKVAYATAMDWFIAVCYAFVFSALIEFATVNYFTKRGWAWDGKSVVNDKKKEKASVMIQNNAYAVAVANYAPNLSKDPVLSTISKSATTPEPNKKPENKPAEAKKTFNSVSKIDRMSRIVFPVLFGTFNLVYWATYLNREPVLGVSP
- Test Name: Binding affinity to GABAa alpha2 (unknown origin) assessed as inhibition constant
Readout Type: Ki (nM)
A number alone suffices; assume nM.

What value of Ki has been reported for the following molecule? CCOC(=O)c1ncn2c1CN(C)C(=O)c1cc(N=[N+]=[N-])ccc1-2 [Ro-154513] 7

###

- Test Name: Dissociation constant, pKa of the compound
- Assay type: physicochemical
If the reported pKa equals or exceeds 8, assign true. If not, assign false.

Exam item: decide whether the reported pKa for CC(C)C[C@H](N)[11C](=O)O is at least 8. true

Exam item: decide whether the reported pKa for CN1C2CCCC1C(c1cncc(-c3cccnc3[18F])c1)C2 (configuration not stated) is at least 8. true
